The measured values listed here are drawn from BindingDB's records for doi:10.1016/j.bmcl.2007.07.021.

# ASSAYED TARGET: Mineralocorticoid receptor (Homo sapiens, UniProt P08235)
# Sequence (P08235 whole entry): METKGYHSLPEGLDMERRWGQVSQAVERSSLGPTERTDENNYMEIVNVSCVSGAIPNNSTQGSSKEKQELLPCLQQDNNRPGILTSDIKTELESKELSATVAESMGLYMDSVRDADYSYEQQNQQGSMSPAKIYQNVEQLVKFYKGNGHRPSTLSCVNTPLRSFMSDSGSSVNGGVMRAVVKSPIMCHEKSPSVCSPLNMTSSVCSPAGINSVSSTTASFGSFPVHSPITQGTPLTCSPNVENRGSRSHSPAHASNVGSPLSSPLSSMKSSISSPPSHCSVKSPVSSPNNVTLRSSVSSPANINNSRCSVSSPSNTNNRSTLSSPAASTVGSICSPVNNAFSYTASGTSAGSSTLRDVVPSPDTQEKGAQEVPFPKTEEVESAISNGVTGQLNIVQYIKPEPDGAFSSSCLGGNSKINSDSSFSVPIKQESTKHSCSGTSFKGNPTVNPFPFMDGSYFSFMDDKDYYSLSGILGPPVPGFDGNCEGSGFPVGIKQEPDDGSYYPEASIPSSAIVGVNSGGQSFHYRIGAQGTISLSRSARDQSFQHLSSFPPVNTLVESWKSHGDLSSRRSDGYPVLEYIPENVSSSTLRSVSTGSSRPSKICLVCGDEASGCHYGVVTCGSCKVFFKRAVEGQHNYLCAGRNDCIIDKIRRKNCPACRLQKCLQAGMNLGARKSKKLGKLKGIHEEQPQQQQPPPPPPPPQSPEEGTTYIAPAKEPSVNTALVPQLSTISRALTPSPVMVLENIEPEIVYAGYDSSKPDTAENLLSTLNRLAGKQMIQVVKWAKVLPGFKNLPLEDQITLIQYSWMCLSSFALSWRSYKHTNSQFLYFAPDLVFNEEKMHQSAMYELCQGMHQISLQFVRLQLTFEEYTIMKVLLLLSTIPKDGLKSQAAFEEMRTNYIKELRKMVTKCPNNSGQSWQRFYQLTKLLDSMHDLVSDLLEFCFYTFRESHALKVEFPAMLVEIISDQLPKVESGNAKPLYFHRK
RECORDED ENDPOINT: IC50 (nM)

1. C=CCOC(C)C1=CC(C)(C)Nc2ccc(-c3ccccc3OC)cc21 (stereo unspecified)
970
